- ASSAY_SYSTEM: human orexin 1 receptor (Homo sapiens, UniProt O43613)
- EXPERIMENT: Human orexin 1 receptor radioligand binding
- CONDITION_PARAMETERS: human orexin 1 receptor radioligand binding; averages of 2-20 runs; read-out: hOX1 Ki
TEST_READOUT: Ki (nM)

Would you please look over these solved cases?
Challenge: Could you please provide reported Ki for C[C@H]1[C@H](Oc2ncc(C(F)(F)F)cc2F)CCCN1C(=O)c1ccccc1-n1nccn1 [Example 224] ? Thanks!
Response given: 47

Challenge: Could you please provide reported Ki for Cc1cnc(C(=O)N2CCC[C@@H](Nc3ccc(C(F)(F)F)cn3)[C@@H]2C)c(-n2nccn2)c1 [Example 26] ? Thanks!
Response given: 16

Challenge: Could you please provide reported Ki for C[C@H]1[C@H](Oc2ccc(C(F)(F)F)cn2)CCCN1C(=O)c1ccccc1-c1ncc(F)cn1 [Example 141] ? Thanks!
Response given: 22

Challenge: Could you please provide reported Ki for Cc1cnc(C(=O)N2CCC[C@@H](Oc3ccc(Cl)cn3)[C@@H]2C)c(-c2ncccn2)c1 [Example 216] ? Thanks!
Response given: 89

Challenge: Could you please provide reported Ki for Cc1cccc(C(=O)N2CCC[C@@H](Oc3ncc(C(F)(F)F)cc3F)[C@@H]2C)c1-n1nccn1 [Example 158] ? Thanks!
Response given: 34

(P) C[C@H]1[C@H](Oc2ccc(C(F)(F)F)cn2)CCCN1C(=O)c1ccccc1-n1nccn1 [Example 110]
(Q) Cc1ccc(-n2nccn2)c(C(=O)N2CCC[C@@H](Oc3cnc(C(F)(F)F)cn3)[C@@H]2C)n1 [Example 107]
Challenge: Dear colleague, could you let me know whether P or Q has the lower recorded Ki? Thanks. Your answer should be the label attached to the chosen record.
Response given: P
(P: 11 nM, Q: 38 nM)
